- System: Gram-positive Listeria innocua (ATCC 33090)
- procedureSummary: Antimicrobial activity (MIC/MBC) against Listeria innocua
- Format: cell-based
- measurementParameters: L. innocua; lowest concentration with no color change (no active growth)
Assign MIC to each entry below.
Number in ppm, nothing else.

Recorded MIC for CCCCCCCCCCCCCCCCCC(=O)N[C@@H](CCCNC(=N)N)C(=O)OCC [Stearic arginate] , please?
14.5

Recorded MIC for CCCCCCCC/C=C\CCCCCCCC(=O)N[C@@H](CCCNC(=N)N)C(=O)OCC [Oleic arginate] , please?
3.6
